All figures here come from the kinase profiling compilation of Christmann-Franck et al. (2016).

- Test system: KIT (human), P10721 [D816V]
- Sequence (P10721 whole entry D816V, looked up): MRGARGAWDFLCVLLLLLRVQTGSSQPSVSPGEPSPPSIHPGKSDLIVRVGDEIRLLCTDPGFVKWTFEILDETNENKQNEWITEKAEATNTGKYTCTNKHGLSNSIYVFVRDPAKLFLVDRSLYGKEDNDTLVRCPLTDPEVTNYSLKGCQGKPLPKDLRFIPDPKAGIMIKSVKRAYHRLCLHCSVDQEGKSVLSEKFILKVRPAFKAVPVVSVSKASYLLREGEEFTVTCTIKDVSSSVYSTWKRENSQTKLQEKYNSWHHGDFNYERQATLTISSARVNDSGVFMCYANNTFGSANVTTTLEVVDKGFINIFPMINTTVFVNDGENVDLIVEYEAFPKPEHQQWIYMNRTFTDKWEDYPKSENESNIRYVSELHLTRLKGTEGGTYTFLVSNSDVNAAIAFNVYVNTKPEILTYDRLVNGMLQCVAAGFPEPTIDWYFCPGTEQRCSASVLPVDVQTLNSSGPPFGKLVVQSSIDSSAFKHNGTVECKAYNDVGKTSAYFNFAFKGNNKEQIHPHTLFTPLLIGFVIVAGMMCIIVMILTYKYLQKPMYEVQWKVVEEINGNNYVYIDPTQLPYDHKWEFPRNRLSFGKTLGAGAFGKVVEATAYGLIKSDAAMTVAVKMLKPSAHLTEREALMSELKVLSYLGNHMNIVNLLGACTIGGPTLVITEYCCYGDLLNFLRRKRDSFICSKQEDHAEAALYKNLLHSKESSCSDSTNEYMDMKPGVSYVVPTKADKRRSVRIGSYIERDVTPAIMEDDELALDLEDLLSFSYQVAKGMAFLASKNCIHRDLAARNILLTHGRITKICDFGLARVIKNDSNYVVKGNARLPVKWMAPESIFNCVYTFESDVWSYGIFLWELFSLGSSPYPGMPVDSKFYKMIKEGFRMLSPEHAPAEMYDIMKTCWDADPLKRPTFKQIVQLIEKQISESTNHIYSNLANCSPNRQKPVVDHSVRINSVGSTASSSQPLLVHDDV
- measurementDescription: KINOMEscan competition binding
- details: compound 10.0 µM
Note to self: kinase still bound, per cent of control under 5% means 1, ties and anything higher get 0.

These solved cases illustrate the format of a correct answer.
smilesStr: CNC(=O)c1ccc(Nc2cc(Nc3ccccc3S(=O)(=O)C(C)C)c3cc[nH]c3n2)nc1
label: 1
--
smilesStr: CCN(CC)CCCCNc1ncc2cc(-c3cc(OC)cc(OC)c3)c(NC(=O)NC(C)(C)C)nc2n1
label: 0
--
smilesStr: OCCCNc1cc(-c2ccnc(Nc3cccc(Cl)c3)n2)ccn1
label: 0

Exercise: Threshold test, kinase still bound, per cent of control < 5%: CCN1CCN(Cc2ccc(NC(=O)c3ccc(C)c(/C=C/c4cnc5[nH]ccc5c4OC)c3)cc2C(F)(F)F)CC1
Solution: 1

Exercise: Consider the compound CCN(CC)CCCCNc1ncc2c(n1)N(C)C(=O)N(c1c(Cl)c(OC)cc(OC)c1Cl)C2 . Is its kinase still bound, per cent of control strictly less than 5%?
Solution: 0

Exercise: Decide: kinase still bound, per cent of control of C=CC(=O)Nc1ccc(CN(C(=O)Nc2c(Cl)c(OC)cc(OC)c2Cl)c2cc(Nc3ccc(N4CCN(C)CC4)cc3)ncn2)cc1 strictly below 5%?
Solution: 0

Exercise: Report whether reported kinase still bound, per cent of control is lower than 5% (strictly) for C=CC(=O)Nc1ccc(C(=O)c2sc(Nc3ccc(N4CCN(C)CC4)cc3OC)nc2N)cc1
Solution: 0

Exercise: Does the reported kinase still bound, per cent of control of the following compound sit strictly below 5%? N#Cc1cc(-c2ccnc(Nc3ccc(-n4cnc(-c5cccnc5)n4)cc3)n2)cc(N2CCOCC2)c1
Solution: 0
